meta.source: patent US9688710B2

A collection of compounds and their measured pIC50
# system: Human sodium/glucose co-transporter type 1 (SGLT1) (Homo sapiens (Human))
# assayInfo: In vitro human SGLT1 inhibition assay (14C-AMG uptake)
# measurementConditions: HEK293 cells expressing human HA-SGLT1, 14C-AMG uptake
pIC50: −log10 of the molar value.

Would you please look over these solved cases?
Using known records, supply pIC50 for CS[C@H]1O[C@@H](c2ccc(C)c(Cc3ccc(CCCCCCC(=O)NC(C)(C)C(N)=O)cc3)c2)[C@H](O)[C@@H](O)[C@@H]1O
> 7.00

Using known records, supply pIC50 for COCCOCCOc1ccc(Cc2cc([C@@H]3O[C@H](SC)[C@@H](O)[C@H](O)[C@H]3O)ccc2Cl)cc1
> 7.00

Using known records, supply pIC50 for CS[C@H]1O[C@@H](c2ccc(Cl)c(Cc3ccc(OCC(=O)NC(C)(C)C(N)=O)cc3)c2)[C@H](O)[C@@H](O)[C@@H]1O
> 7.00

Using known records, supply pIC50 for CS[C@H]1O[C@@H](c2ccc(C)c(Cc3ccc(CCCCNC(=N)N)cc3)c2)[C@H](O)[C@@H](O)[C@@H]1O
> 8.00

Using known records, supply pIC50 for CS[C@H]1O[C@@H](c2ccc(C)c(Cc3ccc(/C=C/C(=O)N4CCN(C)CC4)cc3)c2)[C@H](O)[C@@H](O)[C@@H]1O
> 7.00

Using known records, supply pIC50 for CS[C@H]1O[C@@H](c2ccc(C)c(Cc3ccc(OCCCC(=O)NC(CO)CO)cc3)c2)[C@H](O)[C@@H](O)[C@@H]1O
> 8.00

// next item, pIC50 requested
Using known records, supply pIC50 for CS[C@H]1O[C@@H](c2ccc(Cl)c(Cc3ccc(OCC(=O)NCCCC[C@H](N)C(=O)O)cc3)c2)[C@H](O)[C@@H](O)[C@@H]1O
> 7.00

----------
# system: Human sodium/glucose co-transporter type 2 (SGLT2) (Homo sapiens (Human))
# assayInfo: In vitro human SGLT2 inhibition assay (14C-AMG uptake)
# measurementConditions: HEK293 cells expressing human HA-SGLT2, 14C-AMG uptake
pIC50: −log10 of the molar value.
measurementType: pIC50

Would you please look over these solved cases?
Using known records, supply pIC50 for CS[C@H]1O[C@@H](c2ccc(Cl)c(Cc3ccc(OCCNC4CCNCC4)cc3)c2)[C@H](O)[C@@H](O)[C@@H]1O
> 8.00

Using known records, supply pIC50 for CS[C@H]1O[C@@H](c2ccc(C)c(Cc3ccc(CCC[C@H](N)C(=O)O)cc3)c2)[C@H](O)[C@@H](O)[C@@H]1O
> 7.00

Using known records, supply pIC50 for CS[C@H]1O[C@@H](c2ccc(C)c(Cc3ccc(OCC(=O)O)cc3)c2)[C@H](O)[C@@H](O)[C@@H]1O
> 7.00

Using known records, supply pIC50 for CS[C@H]1O[C@@H](c2ccc(C)c(Cc3ccc(CCCC(=O)NC(C)(C)C(=O)N4CCOCC4)cc3)c2)[C@H](O)[C@@H](O)[C@@H]1O
> 8.00

Using known records, supply pIC50 for CS[C@H]1O[C@@H](c2ccc(C)c(Cc3ccc(OCCNC4(C(N)=O)CCCC4)cc3)c2)[C@H](O)[C@@H](O)[C@@H]1O
> 8.00

New cases:
Using known records, supply pIC50 for CS[C@H]1O[C@@H](c2ccc(C)c(Cc3ccc(OCCCC(=O)NC(C)(C)C(=O)N4CCOCC4)cc3)c2)[C@H](O)[C@@H](O)[C@@H]1O
> 8.00

Using known records, supply pIC50 for CSC1OC(c2ccc(C)c(Cc3ccc(CCCC(=O)N4CCN(CCCN5CCN(C(=O)CCCc6ccc(Cc7cc(C8OC(SC)C(O)C(O)C8O)ccc7C)cc6)CC5)CC4)cc3)c2)C(O)C(O)C1O (stereo not shown)
> 8.00

----------
# system: Human sodium/glucose co-transporter type 1 (SGLT1) (Homo sapiens (Human), UniProt P13866)
# Sequence (P13866 whole entry): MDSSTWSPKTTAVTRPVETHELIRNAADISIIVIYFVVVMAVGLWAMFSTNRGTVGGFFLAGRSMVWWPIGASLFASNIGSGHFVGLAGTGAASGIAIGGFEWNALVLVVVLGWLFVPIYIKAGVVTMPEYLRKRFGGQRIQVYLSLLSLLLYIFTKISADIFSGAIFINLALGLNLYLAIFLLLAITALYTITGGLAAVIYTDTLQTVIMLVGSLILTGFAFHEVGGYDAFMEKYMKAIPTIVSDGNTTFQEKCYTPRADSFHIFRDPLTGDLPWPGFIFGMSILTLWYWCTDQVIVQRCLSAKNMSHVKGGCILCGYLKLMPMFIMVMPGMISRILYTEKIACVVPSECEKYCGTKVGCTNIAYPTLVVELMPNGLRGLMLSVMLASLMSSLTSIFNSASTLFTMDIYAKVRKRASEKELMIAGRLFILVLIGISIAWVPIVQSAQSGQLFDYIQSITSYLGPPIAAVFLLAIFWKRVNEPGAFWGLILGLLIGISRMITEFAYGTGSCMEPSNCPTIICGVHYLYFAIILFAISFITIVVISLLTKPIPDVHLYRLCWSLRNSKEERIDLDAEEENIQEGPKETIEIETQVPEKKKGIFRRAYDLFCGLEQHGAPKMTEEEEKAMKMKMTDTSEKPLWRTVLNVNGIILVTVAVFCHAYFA
# assayInfo: In vitro human SGLT1 inhibition assay (14C-AMG uptake)
# measurementConditions: HEK293 cells expressing human HA-SGLT1, 14C-AMG uptake
pIC50: −log10 of the molar value.
A collection of compounds and their measured pIC50

Using known records, supply pIC50 for CS[C@H]1O[C@@H](c2ccc(Cl)c(Cc3ccc(OCCCC(=O)NC(C)(C)C(N)=O)cc3)c2)[C@H](O)[C@@H](O)[C@@H]1O
> 8.00

Using known records, supply pIC50 for CS[C@H]1O[C@@H](c2ccc(C)c(Cc3ccc(OCCCNCC(C)(C)CN(C)C)cc3)c2)[C@H](O)[C@@H](O)[C@@H]1O
> 8.00

Using known records, supply pIC50 for CS[C@H]1O[C@@H](c2ccc(C)c(Cc3ccc(OCCCC(=O)NC4(C(N)=O)CCCC4)cc3)c2)[C@H](O)[C@@H](O)[C@@H]1O
> 8.00

// next item, pIC50 requested
Using known records, supply pIC50 for CS[C@H]1O[C@@H](c2ccc(Cl)c(Cc3ccc(OCCCC(=O)NC(CO)(CO)CO)cc3)c2)[C@H](O)[C@@H](O)[C@@H]1O
> 7.00

----------
# system: Human sodium/glucose co-transporter type 1 (SGLT1) (Homo sapiens (Human), UniProt P13866)
# assayInfo: In vitro human SGLT1 inhibition assay (14C-AMG uptake)
# Type: cell-based
# Set-up: key: ***: a value less than 0.01 μM; **: a value less than 0.1 μM; *: a value less than 1 μM; —: a value not measured or exceeding μM
# measurementConditions: HEK293 cells expressing human HA-SGLT1, 14C-AMG uptake
measurementType: SGLT1 (human SGLT1 IC50)

Using known records, supply SGLT1 (human SGLT1 IC50) for CS[C@H]1O[C@@H](c2ccc(C)c(Cc3ccc(CCCC(=O)NCC(C)(C)C(=O)N(C)CCN(C)C)cc3)c2)[C@H](O)[C@@H](O)[C@@H]1O
—

Using known records, supply SGLT1 (human SGLT1 IC50) for CS[C@H]1O[C@@H](c2ccc(C)c(Cc3ccc(CCCCC(=O)NC(C)(C)C(=O)O)cc3)c2)[C@H](O)[C@@H](O)[C@@H]1O
—

Using known records, supply SGLT1 (human SGLT1 IC50) for COc1ccc(Cc2cc([C@@H]3O[C@H](SC)[C@@H](O)[C@H](O)[C@H]3O)ccc2OC(F)(F)F)cc1
—

----------
# system: Human sodium/glucose co-transporter type 2 (SGLT2) (Homo sapiens (Human), UniProt P31639)
# Sequence (P31639 whole entry): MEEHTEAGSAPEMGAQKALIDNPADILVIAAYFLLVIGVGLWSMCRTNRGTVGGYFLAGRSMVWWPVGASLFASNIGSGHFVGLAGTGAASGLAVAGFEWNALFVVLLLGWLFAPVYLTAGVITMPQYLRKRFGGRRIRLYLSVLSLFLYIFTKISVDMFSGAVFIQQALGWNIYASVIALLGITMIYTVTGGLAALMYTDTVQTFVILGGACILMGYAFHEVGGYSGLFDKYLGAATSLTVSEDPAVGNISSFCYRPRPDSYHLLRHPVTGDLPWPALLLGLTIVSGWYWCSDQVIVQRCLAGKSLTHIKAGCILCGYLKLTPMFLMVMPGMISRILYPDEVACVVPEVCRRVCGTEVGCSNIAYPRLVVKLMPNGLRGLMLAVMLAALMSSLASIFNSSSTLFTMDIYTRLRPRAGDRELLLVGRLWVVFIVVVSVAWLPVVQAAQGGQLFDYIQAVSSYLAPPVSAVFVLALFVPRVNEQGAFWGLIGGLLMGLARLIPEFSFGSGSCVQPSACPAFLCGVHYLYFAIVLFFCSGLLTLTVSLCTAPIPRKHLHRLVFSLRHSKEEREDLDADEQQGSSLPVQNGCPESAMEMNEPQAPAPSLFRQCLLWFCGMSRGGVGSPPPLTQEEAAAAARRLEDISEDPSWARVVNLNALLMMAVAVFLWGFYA
# assayInfo: In vitro human SGLT2 inhibition assay (14C-AMG uptake)
# measurementConditions: HEK293 cells expressing human HA-SGLT2, 14C-AMG uptake
measurementType: IC50

Would you please look over these solved cases?
Using known records, supply IC50 for CS[C@H]1O[C@@H](c2ccc(Cl)c(Cc3ccc(OCCCC(=O)NC(C)(C)C(N)=O)cc3)c2)[C@H](O)[C@@H](O)[C@@H]1O
< 10 nM

Using known records, supply IC50 for CS[C@H]1O[C@@H](c2ccc(C)c(Cc3ccc(CCCC(=O)NCCN(CCNC(=O)CCCc4ccc(Cc5cc([C@@H]6O[C@H](SC)[C@@H](O)[C@H](O)[C@H]6O)ccc5C)cc4)CCNC(=O)CCCc4ccc(Cc5cc([C@@H]6O[C@H](SC)[C@@H](O)[C@H](O)[C@H]6O)ccc5C)cc4)cc3)c2)[C@H](O)[C@@H](O)[C@@H]1O
< 10 nM

Using known records, supply IC50 for CS[C@H]1O[C@@H](c2ccc(C)c(Cc3ccc(OCC(N)=O)cc3)c2)[C@H](O)[C@@H](O)[C@@H]1O
< 10 nM

Using known records, supply IC50 for CS[C@H]1O[C@@H](c2ccc(C)c(Cc3ccc(OCC(=O)NC(CO)(CO)CO)cc3)c2)[C@H](O)[C@@H](O)[C@@H]1O
< 10 nM

Using known records, supply IC50 for CS[C@H]1O[C@@H](c2ccc(C)c(Cc3ccc(CCCC#N)cc3)c2)[C@H](O)[C@@H](O)[C@@H]1O
< 100 nM

New cases:
Using known records, supply IC50 for CS[C@H]1O[C@@H](c2ccc(C)c(Cc3ccc(CCCC(=O)NCCCC[C@H](N)C(=O)O)cc3)c2)[C@H](O)[C@@H](O)[C@@H]1O
< 10 nM

----------
# system: Human sodium/glucose co-transporter type 1 (SGLT1) (Homo sapiens (Human))
# assayInfo: In vitro human SGLT1 inhibition assay (14C-AMG uptake)
# measurementConditions: HEK293 cells expressing human HA-SGLT1, 14C-AMG uptake
pIC50: −log10 of the molar value.
A collection of compounds and their measured pIC50

Would you please look over these solved cases?
Using known records, supply pIC50 for CS[C@H]1O[C@@H](c2ccc(C)c(Cc3ccc(CCCCCC(=O)NC(C)(C)C(N)=O)cc3)c2)[C@H](O)[C@@H](O)[C@@H]1O
> 7.00

Using known records, supply pIC50 for CS[C@H]1O[C@@H](c2ccc(C)c(Cc3ccc(OCCCC(=O)NC(CO)(CO)CO)cc3)c2)[C@H](O)[C@@H](O)[C@@H]1O
> 8.00

Using known records, supply pIC50 for CS[C@H]1O[C@@H](c2ccc(C)c(Cc3ccc(CCCC(=O)NC(C)(C)C(=O)N4CCNCC4)cc3)c2)[C@H](O)[C@@H](O)[C@@H]1O
> 8.00

Using known records, supply pIC50 for CS[C@H]1O[C@@H](c2ccc(C)c(Cc3ccc(OCCCC(=O)NC(C)(C)C(=O)O)cc3)c2)[C@H](O)[C@@H](O)[C@@H]1O
> 8.00

New cases:
Using known records, supply pIC50 for CS[C@H]1OC(c2ccc(C)c(Cc3ccc(OCCCNC4(C(N)=O)CCCC4)cc3)c2)[C@H](O)[C@@H](O)[C@@H]1O (stereo partly shown)
> 8.00

Using known records, supply pIC50 for CS[C@H]1O[C@@H](c2ccc(Cl)c(Cc3ccc(OCCCNC(=O)C(C)(C)CO)cc3)c2)[C@H](O)[C@@H](O)[C@@H]1O
> 7.00
